Target: hormone-sensitive lipase (HSL) (Rattus norvegicus)
Construct: Isolated rat lipocytes were obtained from epididymal fatty tissue of nontreated male rats; from tissue; host or cells: rat epididymal fat tissue lipocytes (Wistar), partially purified
Experiment: Inhibition of partially purified hormone-sensitive lipase (HSL) from rats, [3H]trioleoylglycerol substrate
Type: biochemical
IC50 for assorted compounds
The reply should be a number in nM, with the unit left off.

CCCCCCCCCCCCCCCCOP1(=O)OCC2COC(=O)C2=C(C)O1 (centres unmarked) = 30

Next compound, please.
Which IC50 value is on record for CC1=C2C(=O)OCC2COP(=O)(OCCCCCCCCCCCCCC(C)C)O1 (centres unmarked) [Cyclipostin P2] ?
40

----------
Biological target: HSL from rats (Rattus norvegicus)
Construct: from tissue; host or cells: rat
Sequence (P15304 1-768 isoform P15304-2): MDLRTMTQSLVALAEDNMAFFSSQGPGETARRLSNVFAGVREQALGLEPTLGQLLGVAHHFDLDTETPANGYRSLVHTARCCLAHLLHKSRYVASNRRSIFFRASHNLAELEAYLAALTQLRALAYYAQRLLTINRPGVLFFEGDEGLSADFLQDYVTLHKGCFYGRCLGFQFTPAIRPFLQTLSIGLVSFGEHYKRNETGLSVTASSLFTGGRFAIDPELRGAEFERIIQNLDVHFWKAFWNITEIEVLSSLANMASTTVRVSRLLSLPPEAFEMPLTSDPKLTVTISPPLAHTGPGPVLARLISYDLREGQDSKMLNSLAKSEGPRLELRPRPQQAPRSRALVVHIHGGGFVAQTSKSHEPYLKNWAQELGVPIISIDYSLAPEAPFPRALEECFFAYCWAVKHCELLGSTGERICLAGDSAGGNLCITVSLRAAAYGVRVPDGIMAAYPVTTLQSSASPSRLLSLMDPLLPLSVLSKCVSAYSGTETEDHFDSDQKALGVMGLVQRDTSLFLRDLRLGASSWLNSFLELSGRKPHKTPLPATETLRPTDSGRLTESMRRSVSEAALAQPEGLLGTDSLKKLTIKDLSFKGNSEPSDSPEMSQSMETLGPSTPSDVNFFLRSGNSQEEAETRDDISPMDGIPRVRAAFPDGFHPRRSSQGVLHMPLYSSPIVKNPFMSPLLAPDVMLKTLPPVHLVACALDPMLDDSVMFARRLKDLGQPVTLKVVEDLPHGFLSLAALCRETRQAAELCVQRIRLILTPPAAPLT
Experiment: Inhibition of HSL from rats with NBD as substrate
Format: biochemical
Conditions: NBD (4-chloro-7-nitrobenzo-2-oxa-1,3-diazole) as substrate; read-out: concentrations inhibiting HSL from rats
Form field: IC50 (one value per entry).

CCCCCCCCCCCCCCCOP1(=O)OCC2COC(=O)C2=C(C)O1 (centres unmarked) = 4 to 10 nM

Consider the record given below.
Fill in the blank: the reported IC50 of CCCCC(O)CCCCCCCCCCCOP1(=O)OCC2COC(=O)C2=C(C)O1 (centres unmarked) is ____.
4 to 10 nM

----------
Target: HSL from rats (Rattus norvegicus, UniProt P15304)
Construct: from tissue; host or cells: rat
Assay: Inhibition of HSL from rats with NBD as substrate
Type: biochemical
Reported IC50 values follow for various compounds

CCCCCCCCCCCCCCCCOP1(=O)OCC2COC(=O)C2=C(C)O1 (centres unmarked) [Cyclipostin P] = 4 to 10 nM

Proceeding to the next compound to report its IC50.
Identify the measured IC50 of CC1=C2C(=O)OCC2COP(=O)(OCCCCCCCCCCCCCC(C)C)O1 (centres unmarked) [Cyclipostin P2] for HSL from rats (Rattus norvegicus, UniProt P15304).
4 to 10 nM

----------
Assay: Solubility (characterization of the isolated substance)
Conditions: water and petroleum ether
MEASURED ENDPOINT: solubility in water and petroleum ether

Below are worked cases with known answers.
CCCCCCCCCCCCCCCCOP1(=O)OCC2COC(=O)C2=C(C)O1 (centres unmarked) [Cyclipostin P] = only slightly soluble
CCCC(O)CCCCCCCCCCCCO[P@]1(=O)OC[C@H]2COC(=O)C2=C(C)O1 (some centres unmarked) [Cyclipostin B] = only slightly soluble
CCCCCCCCCCCCCCOP1(=O)OCC2COC(=O)C2=C(C)O1 (centres unmarked) [Cyclipostin N] = only slightly soluble
CCCCCCCCCCCCCCCCOP1(=O)OCC2COC(=O)C2=C(CC)O1 (centres unmarked) [Cyclipostin S] = only slightly soluble

Kindly review the next compound as well.
// query solubility in water and petroleum ether value for entry CCCC1=C2C(=O)OCC2COP(=O)(OCCCCCCCCCCCCCC(C)C)O1 (centres unmarked) [Cyclipostin T2]
only slightly soluble

----------
Biological target: hormone-sensitive lipase (HSL) (Rattus norvegicus, UniProt P15304)
Construct: Isolated rat lipocytes were obtained from epididymal fatty tissue of nontreated male rats; from tissue; host or cells: rat epididymal fat tissue lipocytes (Wistar), partially purified
Test: Inhibition of partially purified hormone-sensitive lipase (HSL) from rats, [3H]trioleoylglycerol substrate
Format: biochemical
Details: trioleoylglycerol as substrate; read-out: IC50, inhibition of hormone-sensitive lipase from rats
Reported pIC50 values follow for various compounds
# pIC50: negative log10 of molar concentration; output just the value

Solved cases (5 shown):
CCCCCCCCCCCCCCCCOP1(=O)OCC2COC(=O)C2=C(CC)O1 (stereo not shown) [Cyclipostin S] = 7.70
CCCC1=C2C(=O)OCC2COP(=O)(OCCCCCCCCCCCCCC(C)C)O1 (stereo not shown) [Cyclipostin T2] = 7.22
CC1=C2C(=O)OCC2COP(=O)(OCCCCCCCCCCCCC(C)C)O1 (stereo not shown) [Cyclipostin R2] = 6.66
CCCCCCCCCCCCCCCOP1(=O)OCC2COC(=O)C2=C(C)O1 (stereo not shown) [Cyclipostin R] = 8.00
CCCCC(O)CCCCCCCCCCCOP1(=O)OCC2COC(=O)C2=C(C)O1 (stereo not shown) [Cyclipostin A] = 7.70

Sample CCCCCCCCCCCCCCCCOP1(=O)OCC2COC(=O)C2=C(CCC)O1 (stereo not shown) [Cyclipostin T] — what was its pIC50?
6.70

# pIC50 lookup, item CCCCCCCCCCCCCCOP1(=O)OCC2COC(=O)C2=C(C)O1 (stereo not shown) [Cyclipostin N]
6.35
